B1: PLAGL1 (parent)
chain: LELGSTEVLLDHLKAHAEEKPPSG

- Variants of: B1
- Test Description: protein stability index of a GFP-peptide fusion (GPS, HEK-293T) (PSI 1-6); higher = more stable;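 also: lentivirally expressed fusions sorted by FACS into six bins by GFP to DsRed ratio, PSI derived from sequencing read proportions per bin multiplied by bin number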
- Applied Conditions: c terminus: a fixed tail appended
Quantity Kind: protein stability index
Please state the value as a number alone, without comment.

Ask: Could you tell me which protein stability index is on file for LELGSTEVLLDHLNAHAEEKPPSG [K14N] ?
Result: 5.04

Ask: Given the entry LELGSTIVLLDHLKAHAEEKPPSG [E7I] , report its measured protein stability index.
Result: 3.69

Ask: Param item = LELGSTEVLLLHLKAHAEEKPPSG [D11L] ; retrieve measured protein stability index.
Result: 1.79

Ask: Form field: reported protein stability index of LQLGSTEVLLDHLKAHAEEKPPSG [E2Q]
Result: 4.19

Ask: Field request: protein stability index | item: LELGSTEVLLDHLKAHAEEKPFSG [P22F]
Result: 3.35

Ask: Give its protein stability index value. Item: LELGSTEVLLDHLKAHAEEKPPTG [S23T]
Result: 4.17

Ask: Report protein stability index for LELGSTEVLLDHLKAHAEEKPPSL [G24L] please.
Result: 3.51

Ask: Which protein stability index value is on record for LELGRTEVLLDHLKAHAEEKPPSG [S5R] ?
Result: 3.5

Ask: Recorded protein stability index of LELGSTEVQLDHLKAHAEEKPPSG [L9Q] , please.
Result: 5.84

Ask: Would you mind telling me what protein stability index value was observed for LELGSTEVLLDHSKAHAEEKPPSG [L13S] ?
Result: 5.6

Ask: # query: protein stability index of entry LELGSTEVLLDHLWAHAEEKPPSG [K14W]
Result: 4.1

Ask: Given the entry LELGSTEVLLDHLKAHAEEKKPSG [P21K] , report its measured protein stability index.
Result: 5.04

Ask: Report protein stability index for LKLGSTEVLLDHLKAHAEEKPPSG [E2K] please.
Result: 4.23

Ask: // query protein stability index value for entry LELVSTEVLLDHLKAHAEEKPPSG [G4V]
Result: 3.28

Ask: So what's the measured protein stability index for this one? LELGSTEVLLDHLGAHAEEKPPSG [K14G]
Result: 5.39

Ask: Returns the measured protein stability index for the input variant. Input: LELGSTEVLLDHLKAHTEEKPPSG [A17T]
Result: 4.16

Ask: GET /values?readout=protein stability index&item= LELGSTGVLLDHLKAHAEEKPPSG [E7G]
Result: 4.89

Ask: Please give the measured protein stability index for this variant: LELGSTEVLLDHLKAHAEMKPPSG [E19M]
Result: 3.41

Ask: Give the measured protein stability index of LELGSTEVLDDHLKAHAEEKPPSG [L10D] .
Result: 5.35

Ask: Look at this variant and give its reported protein stability index. LHLGSTEVLLDHLKAHAEEKPPSG [E2H]
Result: 4.03

Ask: Which measured protein stability index value corresponds to DELGSTEVLLDHLKAHAEEKPPSG [L1D] ?
Result: 5.24

Ask: Would you kindly share the measured protein stability index for LELGSGEVLLDHLKAHAEEKPPSG [T6G] ?
Result: 4.75

Ask: What protein stability index value was documented for this variant, LELGSTEVLLDHLKAHAEEKPKSG [P22K] ?
Result: 4.25

Ask: Look up protein stability index for this variant: LELYSTEVLLDHLKAHAEEKPPSG [G4Y]
Result: 2.19

Ask: Please report the recorded protein stability index for LELGSTEWLLDHLKAHAEEKPPSG [V8W] .
Result: 3.79

Ask: Dear colleague, I am looking for the recorded protein stability index of the following variant: LELGSTEVLLDHLKAHAEEKPHSG [P22H]
Result: 4.03

Ask: What value of protein stability index has been reported for the following variant? LELGSTEVLHDHLKAHAEEKPPSG [L10H]
Result: 5.35

Ask: Request the reported protein stability index associated with LELGSTEVLLDHLKAHAMEKPPSG [E18M]
Result: 2.61

Ask: Look up protein stability index for this variant: LELGSTEVLYDHLKAHAEEKPPSG [L10Y]
Result: 5.26

Ask: Reported protein stability index for LELGSTEVLLDHLKAHAEEKSPSG [P21S] : what is it?
Result: 4.53

Ask: Which measured protein stability index value corresponds to LELGSTEVLLDHLKAHAEEKWPSG [P21W] ?
Result: 3.53

Ask: What does the data say about its protein stability index? Entry: LELGSTEVKLDHLKAHAEEKPPSG [L9K]
Result: 4.99

Ask: Reported protein stability index for LELPSTEVLLDHLKAHAEEKPPSG [G4P] : what is it?
Result: 4.77

Ask: Quick check: protein stability index of LELGSTEVLLDHFKAHAEEKPPSG [L13F] ?
Result: 4.22

Ask: Could you share which protein stability index value was measured for LELGSTEVLLDHLKAHAEEKPVSG [P22V] ?
Result: 3.81

Ask: Query (variant): LELGSTEVLLHHLKAHAEEKPPSG [D11H] ; field requested: protein stability index
Result: 3.79

Ask: Which measured protein stability index value corresponds to LELGSTEVLLDHLKAHAEEKPPGG [S23G] ?
Result: 4.43

Ask: Could you share which protein stability index value was measured for LELGSTEVWLDHLKAHAEEKPPSG [L9W] ?
Result: 4.11

Ask: Entry YELGSTEVLLDHLKAHAEEKPPSG [L1Y] has what protein stability index?
Result: 4.38

Ask: Quick one: protein stability index for LELGSTEVLLDHLKSHAEEKPPSG [A15S] ?
Result: 4.44

Ask: I have this variant here, LELGSTEVLLDHLKAHANEKPPSG [E18N] , and I need its recorded protein stability index.
Result: 3.53

Ask: May I ask what protein stability index has been recorded for LELGSTQVLLDHLKAHAEEKPPSG [E7Q] ?
Result: 4.89

Ask: Requested field: protein stability index. Item: LELGSTEVLLDHLKAHAEERPPSG [K20R]
Result: 4.26

Ask: What measured protein stability index goes with LEVGSTEVLLDHLKAHAEEKPPSG [L3V] ?
Result: 4.9

Ask: I am curious: what protein stability index value has been reported for LELGSTEVLLDHLKACAEEKPPSG [H16C] ?
Result: 4.2

Ask: So what does the record say about protein stability index for LELGSTEVMLDHLKAHAEEKPPSG [L9M] ?
Result: 4.77

Reference source: the supplement of paper PMC10567573
